Give EC50 for every item shown.
TARGET OR TEST SYSTEM: sIGF1R (Homo sapiens, UniProt P08069)
Construct: hexahistidine (C); purchased R&D Systems
TEST METHOD NOTES: ELISA relative binding affinity of PG-peptide fusions for sIGF1R
ASSAY SETUP: PG-peptide fusion, ELISA on 2 μg/ml coated sIGF1R, one site binding equation
Only the number, expressed in nM, is required.

Measured EC50, 9 (FTCAVYSLSELDCRD; IGF1R binding peptide from pIX library) [Clone 9] : 3500

Measured EC50, 14 (VECDTPSITFSPGLEALFWNTCSP; IGF1R binding peptide from pIX library) [Clone 14] : 850

Measured EC50, 15 (MTCAWHTLHTDPGLTPQLTLPCIY; IGF1R binding peptide from pIX library) [Clone 15] : 2600

Measured EC50, 8 (PVCPSFCYDQYVCPT; IGF1R binding peptide from pIX library) [Clone 8] : 1600

Measured EC50, 6 (AECEWPWLTLELCQS; IGF1R binding peptide from pIX library) [Clone 6] : 1000

Measured EC50, 7 (PFCYSGGPLPYPCTY; IGF1R binding peptide from pIX library) [Clone 7] : 1800

Measured EC50, 5 (TGCDFPELCRGCHP; IGF1R binding peptide from pIX library) [Clone 5] : 750

Origin of the recorded values: patent US8415306B2
